Provenance of the data: patent US11566007B2

Exercise: state measured IC50 for each of the compounds provided.
testSystem: KRAS G12D (Homo sapiens (Human), UniProt P01116+P62937, G12D)
Sequence (P01116-2 other isoform, or with tags, fused parts or gaps G12D): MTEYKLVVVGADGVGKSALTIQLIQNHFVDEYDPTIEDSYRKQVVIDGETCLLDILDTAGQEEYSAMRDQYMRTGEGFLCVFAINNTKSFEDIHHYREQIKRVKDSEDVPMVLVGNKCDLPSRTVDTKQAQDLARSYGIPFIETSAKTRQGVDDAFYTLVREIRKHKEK
Sequence (P62937 whole entry): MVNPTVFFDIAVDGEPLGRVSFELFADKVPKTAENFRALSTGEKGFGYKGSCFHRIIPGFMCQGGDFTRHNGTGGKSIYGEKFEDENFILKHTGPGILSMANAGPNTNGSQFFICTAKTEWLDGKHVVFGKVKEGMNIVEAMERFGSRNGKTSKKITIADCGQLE
method: Ras-Raf (BRAF RBD) disruption / FRET / MOA assay, KRAS G12D
Assay type: biochemical
assaySetup: Ras-Raf disruption/FRET/MOA assay; class symbols; read-out: KRAS G12D FRET data IC50

Recorded IC50 for CO[C@@H](C)c1ncccc1-c1c2c3cc(ccc3n1CC(F)(F)F)-c1csc(n1)C[C@H](NC(=O)[C@H](C(C)C)N(C)C(=O)N1CCC3(CC1)CN(C(=O)/C=C/CF)C3)C(=O)N1CCC[C@H](N1)C(=O)OCC(C)(C)C2 (atropisomer, axis not shown) [Example A602] , please?
100 to 1000 nM

Moving on to the next compound: C=CC(=O)N1CC[C@H](C(=O)N(C)[C@H](C(=O)N[C@H]2Cc3cc(O)cc(c3)-c3ccc4c(c3)c(c(-c3cccnc3COC)n4C)CC(C)(C)COC(=O)[C@@H]3CCCN(N3)C2=O)C(C)C)C1 [Example A066]
> 10000 nM

For C=CC(=O)N1CC[C@H](C(=O)N(C)[C@H](C(=O)N[C@H]2Cc3nc(cs3)-c3ccc4c(c3)c(c(-c3cc(C5=CCN(C)CC5)cnc3[C@H](C)OC)n4CC)CC(C)(C)COC(=O)[C@@H]3CCCN(N3)C2=O)C(C)C)C1 (atropisomer, axis not shown) [Example A521] then?
> 10000 nM

Entry CO[C@@H](C)c1ncccc1-c1c2c3cc(ccc3n1CC(F)(F)F)-c1nc(nn1C)C[C@H](NC(=O)[C@H](C(C)C)N(C)C(=O)C1(F)CCN(C(=O)C#CC(C)(C)N(C)C)CC1)C(=O)N1CCC[C@H](N1)C(=O)OCC(C)(C)C2 (atropisomer, axis not shown) [Example A577] please
100 to 1000 nM

Check CCn1c(-c2cccnc2[C@H](C)OC)c2c3cc(ccc31)-c1csc(n1)C[C@H](NC(=O)[C@H](C(C)C)N(C)C(=O)N1CCC3(CC1)CN(C(=O)/C=C/C(F)F)C3)C(=O)N1CCC[C@H](N1)C(=O)OCC(C)(C)C2 (atropisomer, axis not shown) [Example A683] too.
100 to 1000 nM

What do we get for C=CC(=O)N1CC[C@H](C(=O)N(C)[C@H](C(=O)N[C@H]2Cc3cc(O)cc(c3)-c3ccc4c(c3)c(c(-c3cccnc3N3CC(OC)C3)n4CC)CC(C)(C)COC(=O)[C@@H]3CCCN(N3)C2=O)C(C)C)C1 [Example A060] ?
> 10000 nM

One more compound: C=CC(=O)N1CC[C@H](C(=O)N(C)[C@H](C(=O)N[C@H]2Cc3cc(O)cc(c3)-c3ccc4c(c3)c(c(-c3ccccc3N3CCOCC3)n4CC)CC(C)(C)COC(=O)[C@@H]3CCCN(N3)C2=O)C(C)C)C1 [Example A026]
> 10000 nM

And the next one, CCn1c(-c2cccnc2[C@H](C)OC)c2c3cc(ccc31)-c1cc(O)cc(c1)C[C@H](NC(=O)[C@H](C(C)C)N(C)C(=O)N1CCCN(C(=O)/C=C/CN(C)C)CC1)C(=O)N1CCC[C@H](N1)C(=O)OCC(C)(C)C2 (atropisomer, axis not shown) [Example A264] ?
10 to 100 nM

Field entry: C=CC(=O)N1C[C@@H](C)[C@H](N(C)C(=O)N(C)[C@H](C(=O)N[C@H]2Cc3nc(cs3)-c3ccc4c(c3)c(c(-c3cccnc3[C@H](C)OC)n4CC)CC(C)(C)COC(=O)[C@@H]3CCCN(N3)C2=O)C(C)C)C1 (atropisomer, axis not shown) [Example A588]
1000 to 10000 nM

Now give it for CO[C@@H](C)c1ncccc1-c1nc2ccc3cn2c1CC(C)(C)COC(=O)[C@@H]1CCCN(N1)C(=O)[C@@H](NC(=O)[C@H](C(C)C)N(C)C(=O)[C@H]1CCN(C(=O)C#CC(C)(C)N(C)C)C1)Cc1cccc-3c1 [Example A311] too.
> 10000 nM

Entry CO[C@@H](C)c1ncccc1-c1c2c3cc(ccc3n1CC(F)(F)F)-c1cccc(c1)C[C@H](NC(=O)[C@@H](COC1CN(C(=O)C#CC3(C)OCCO3)C1)C(C)C)C(=O)N1CCC[C@H](N1)C(=O)OCC(C)(C)C2 (atropisomer, axis not shown) [Example A703] please
> 10000 nM

Request: C=CC(=O)N1CC[C@H](C(=O)N(C)[C@H](C(=O)N[C@H]2Cc3cc(O)cc(c3)-c3ccc4c(c3)c(c(-c3c(CCOC)cccc3OC)n4CC)CC(C)(C)COC(=O)[C@@H]3CCCN(N3)C2=O)C(C)C)C1 [Example A080]
> 10000 nM

Then what about the compound C=CC(=O)Nc1ncc(C(=O)N(C)[C@H](C(=O)N[C@H]2Cc3cccc(c3)-c3ccc4c(c3)c(c(-c3cccnc3[C@H](C)OC)n4CC)CC(C)(C)COC(=O)[C@@H]3CCCN(N3)C2=O)C(C)C)n1C (atropisomer, axis not shown) [Example A475] ?
> 10000 nM

Follow-up item: C=CC(=O)Nc1cnc(C(=O)N(C)[C@H](C(=O)N[C@H]2Cc3cc(O)cc(c3)-c3ccc4c(c3)c(c(-c3cccnc3[C@H](C)OC)n4CC)CC(C)(C)COC(=O)[C@@H]3CCCN(N3)C2=O)C(C)C)n1C (atropisomer, axis not shown) [Example A255]
100 to 1000 nM

Then this compound: CO[C@@H](C)c1ncccc1-c1c2c3cc(ccc3n1CC(F)(F)F)-c1cccc(c1)C[C@H](NC(=O)[C@@H](COC1CN(C(=O)C#CC(C)(C)N(C)C)C1)C(C)C)C(=O)N1CCC[C@H](N1)C(=O)OCC(C)(C)C2 (atropisomer, axis not shown) [Example A376]
> 10000 nM
